- measurement_description: in vivo
- condition_notes: rat, plasma, po, 10 mg/kg
Exercise: for every item that follows, state its recorded AUC(0-t).
All answers are understood in µM·h, so give the number only.

Problem: Reported AUC(0-t), compound COc1ccc(C(=O)O)cc1-c1cccc(COc2ccc3c(c2)CN(C2CCCC2)C3=O)c1 [Compound 15a] : ____
Solution: 12

Problem: Reported AUC(0-t), compound O=C(O)c1cc(-c2cccc(COc3ccc4c(c3)CN(C3CCCC3)C4=O)c2)ccc1O [Compound 15b] : ____
Solution: 7.1

Problem: Reported AUC(0-t), compound `O=C(O)c1cc(-c2cccc(COc3ccc4c(c3)CN(C3CCCC3)C4=O)c2)ccc1Cl` : ____
Solution: 42.5

Problem: Reported AUC(0-t), compound `O=C(O)c1cc(-c2cccc(-c3ccc4c(c3)CN(C3CCCC3)C4=O)c2)ccc1Cl` : ____
Solution: 2.67

Problem: Reported AUC(0-t), compound `O=C(O)c1cc(-c2cccc(COc3ccc4c(=O)n(C5CC5)sc4c3)c2)ccc1Cl` : ____
Solution: 61.5
